Biological target: mGlu4 receptor (Homo sapiens, UniProt Q14833)
Construct: mGlu4 receptor NM_000841, mGlu7 receptor NM_000844.2, and mGlu8 receptor NM_000845; expressed in transfected cells; host or cells: T-REx 293
Sequence (Q14833 33-912): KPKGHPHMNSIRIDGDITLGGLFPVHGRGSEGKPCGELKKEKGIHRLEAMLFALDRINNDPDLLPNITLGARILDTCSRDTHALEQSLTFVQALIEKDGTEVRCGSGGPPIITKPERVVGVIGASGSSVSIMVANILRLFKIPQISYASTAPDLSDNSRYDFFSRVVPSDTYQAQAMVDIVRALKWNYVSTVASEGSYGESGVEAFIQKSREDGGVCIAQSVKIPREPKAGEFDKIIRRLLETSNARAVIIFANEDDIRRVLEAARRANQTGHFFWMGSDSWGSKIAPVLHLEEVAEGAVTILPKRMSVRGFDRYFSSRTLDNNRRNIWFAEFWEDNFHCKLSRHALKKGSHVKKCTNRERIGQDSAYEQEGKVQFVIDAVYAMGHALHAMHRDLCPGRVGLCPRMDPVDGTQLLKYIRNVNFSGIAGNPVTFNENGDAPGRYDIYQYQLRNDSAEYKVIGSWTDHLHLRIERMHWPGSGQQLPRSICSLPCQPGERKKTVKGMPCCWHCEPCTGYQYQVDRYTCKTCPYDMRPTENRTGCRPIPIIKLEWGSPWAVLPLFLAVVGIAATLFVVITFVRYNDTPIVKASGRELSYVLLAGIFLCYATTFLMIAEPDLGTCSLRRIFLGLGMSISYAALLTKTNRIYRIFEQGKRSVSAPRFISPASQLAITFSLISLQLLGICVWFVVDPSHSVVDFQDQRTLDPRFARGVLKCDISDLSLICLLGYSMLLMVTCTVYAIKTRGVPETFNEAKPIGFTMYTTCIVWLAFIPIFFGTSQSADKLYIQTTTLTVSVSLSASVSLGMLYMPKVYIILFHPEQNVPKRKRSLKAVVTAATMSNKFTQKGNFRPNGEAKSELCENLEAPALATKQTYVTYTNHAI
Assay: forskolin-stimulated cAMP assay, PAM mode (EC20 of L-Glu), T-REx 293 cells
Format: cell-based
Settings: T-REx-293; PAM mode, human mGlu4; SEM where given; read-out: GluMax
Description: The activity of the compounds was assessed in vitro in a forskolin-stimulated cAMP assay in T-REx 293 cells expressing human mGlu4 receptors in the presence of an EC20 concentration of L-Glu; a PAM was identified if it potentiated cAMP inhibition by the Gi/o-dependent pathway of mGlu4 receptor activation; i.e. if it was able to produce a leftward shift in the potency of the endogenous agonist. […]
Emax reference
parameter: Emax

In [3]: df
Out[3]:
                                   molecule  parameter  value_reported
0  COc1cc(NC(=O)c2nccs2)ccc1-c1noc(-c2ccccc2Cl)n1 [Compound 46]       Emax            126%
1  O=C(Nc1ccc(-c2noc(-c3ccccc3)n2)c(C(F)(F)F)c1)c1ccccn1 [Compound 59]       Emax            150%
2  Cc1cc(NC(=O)c2ccccn2)ccc1-c1noc(-c2ccccc2)n1 [Compound 61]       Emax            128%
3  O=C(Nc1ccc(-c2noc(-c3ccccc3)n2)c(Cl)c1)c1ccccn1 [Compound 49]       Emax            123%
4  O=C(Nc1ccc(-c2noc(-c3ccccc3)n2)c(F)c1)c1ccccn1 [Compound 55]       Emax            127%

* * *

target: mGlu4 receptor (Homo sapiens, UniProt Q14833); construct: mGlu4 receptor NM_000841, mGlu7 receptor NM_000844.2, and mGlu8 receptor NM_000845; expressed in transfected cells; host or cells: T-REx 293; assay: forskolin-stimulated cAMP assay, PAM mode (EC20 of L-Glu), T-REx 293 cells; assay type: cell-based; conditions: PAM mode, EC20 (3 µM) L-Glu, T-REx 293 cells expressing human mGlu4 receptor; SEM where given
Values of EC50 strictly less than 1000 nM map to true (1), and values of at least 1000 nM map to false (0).

                                    compound  classification
 0  COc1ccccc1-c1nc(-c2ccc(NC(=O)c3ccccn3)cc2Cl)no1        true (1)
 1  COc1cc(NC(=O)c2cccc(F)n2)ccc1-c1noc(-c2ccccc2F)n1        true (1)
 2  COc1cc(NC(=O)c2ccccn2)ccc1-c1noc(-c2ccccc2F)n1        true (1)
 3  COc1cc(NC(=O)c2ccncn2)ccc1-c1noc(-c2ccccc2Cl)n1       false (0)
 4  COc1cc(NC(=O)c2ccccn2)ccc1-c1noc(-c2ccc(Cl)cc2)n1       false (0)
 5  COc1cc(NC(=O)c2ccccn2)ccc1-c1noc(-c2ccccc2Cl)n1        true (1)
 6  COc1cc(NC(=O)c2ccccn2)ccc1-c1noc(-c2cccc(Cl)c2)n1       false (0)
 7  Cc1cc(NC(=O)c2ccccn2)ccc1-c1noc(-c2ccccc2Cl)n1        true (1)
 8  O=C(Nc1ccc(-c2noc(-c3ccccc3Cl)n2)c(Cl)c1)c1ccccn1        true (1)
 9  O=C(Nc1ccc(-c2noc(-c3ccccc3)n2)c(F)c1)c1ccccn1       false (0)
10  O=C(Nc1ccc(-c2noc(-c3ccccc3)n2)c(C(F)(F)F)c1)c1ccccn1        true (1)
11  O=C(Nc1ccc(-c2noc(-c3ccc(F)cc3Cl)n2)c(Cl)c1)c1ccccn1       false (0)
12  O=C(Nc1ccc(-c2noc(-c3ccccc3Cl)n2)cc1)c1ccccn1 [Compound 17d]       false (0)
